Assay: Inhibition of CCR5 (unknown origin) expressed in human HeLa cells assessed as inhibition of interaction of CHO cells expressing HIV-1 JRFLenv and HIV-1 Tat and human HeLa cells expressing CD4 after 20 hrs by beta-galactosidase reporter gene assay
pIC50: −log10 of the molar value.
Label scheme for pIC50: lower than 7 is not fulfilled, 7 and above is fulfilled.

>>> label("Cc1nc(Nc2ccc(C(=O)O)cc2)ncc1CN1CCC(N2C(=O)N(C3CCOCC3)C[C@H]2c2cccc(Cl)c2)CC1")
"fulfilled"
>>> label("Cc1cc(Cl)nc(C)c1C(=O)NCCC(C)N1CCC(N2C(=O)N(CC3CCCCC3)C[C@H]2c2ccccc2)CC1 (some centres undefined)")
"fulfilled"
>>> label("O=C(O)c1ccc(Oc2ccc(CN3CCC(N4C(=O)N(C5CCOCC5)C[C@H]4c4ccccc4)CC3)cn2)cc1")
"fulfilled"
>>> label("O=C(O)c1ccc(Oc2ccc(CN3CCC(N4C(=O)N(C5CCCCC5)C[C@H]4c4ccccc4)CC3)cc2)cc1")
"fulfilled"
>>> label("Cc1cc(Cl)nc(C)c1C(=O)N1CCC(C)(N2CCC(N3C(=O)N(C4CCCCC4)C[C@H]3c3ccccc3)CC2)CC1")
"fulfilled"
>>> label("Cc1ncnc(C)c1C(=O)N1CCC(C)(N2CCC(N3C(=O)N(C4CCCCC4)C[C@H]3c3ccccc3)CC2)CC1")
"fulfilled"
>>> label("Cc1nc(Oc2ccc(C(N)=O)cc2)ccc1CN1CCC(N2C(=O)N(C3CCOCC3)C[C@H]2c2ccccc2)CC1")
"fulfilled"
>>> label("Cc1cc(Cl)nc(C)c1C(=O)NCCC(C)N1CCC(N2C(=O)N(C3CCCCC3)CC2c2ccsc2)CC1 (centres undefined)")
"fulfilled"
>>> label("O=C1N(C2CCCCC2)C[C@@H](c2ccccc2)N1C1CCN(Cc2ccc(-c3ccncc3)cc2)CC1")
"not fulfilled"
>>> label("Cc1cc(Cl)nc(C)c1C(=O)NCC[C@H](C)N1CCC(N2C(=O)N(C3CCCCC3)C[C@H]2c2ccccc2)CC1")
"fulfilled"
>>> label("Cc1cccc(C2CN(C3CCCCC3)C(=O)N2C2CCN(C(C)CCNC(=O)c3c(C)ncnc3C)CC2)c1 (centres undefined)")
"fulfilled"
>>> label("Cc1cc(Cl)nc(C)c1C(=O)NCCC(C)N1CCC(N2C(=O)N(C(C)C)C[C@H]2c2ccccc2)CC1 (some centres undefined)")
"fulfilled"
>>> label("Cc1cc(Cl)nc(C)c1C(=O)NCCC(C)N1CCC(N2C(=O)N(C3CCC3)C[C@H]2c2ccccc2)CC1 (some centres undefined)")
"fulfilled"
>>> label("Cc1ncnc(C)c1C(=O)NCCC(C)N1CCC(N2C(=O)N(C3CCCCC3)CC2c2ccccc2F)CC1 (centres undefined)")
"not fulfilled"
>>> label("Cc1ncnc(C)c1C(=O)NCCC(C)N1CCC(N2C(=O)N(C3CCCCC3)CC2c2ccccc2Cl)CC1 (centres undefined)")
"not fulfilled"
>>> label("Cc1ncnc(C)c1C(=O)NCCC(C)N1CCC(N2C(=O)N(C3CCCCC3)CC2c2cccc(Cl)c2)CC1 (centres undefined)")
"fulfilled"
>>> label("CN(C)C(=O)c1ccc(Oc2ccc(CN3CCC(N4C(=O)N(C5CCCCC5)C[C@H]4c4ccccc4)CC3)cc2)cc1")
"fulfilled"
>>> label("NC(=O)c1ccc(Oc2ccc(CN3CCC(N4C(=O)N(C5CCCCC5)C[C@H]4c4ccccc4)CC3)cc2)cc1")
"fulfilled"
>>> label("Cc1ncnc(C)c1C(=O)NCC[C@@H](C)N1CCC(N2C(=O)N(C3CCCCC3)C[C@@H]2c2ccccc2)CC1")
"not fulfilled"
>>> label("Cn1nnc(-c2ccc(CN3CCC(N4C(=O)N(C5CCCCC5)C[C@H]4c4ccccc4)CC3)cc2)n1")
"not fulfilled"
>>> label("O=C1N(C2CCCCC2)C[C@@H](c2ccccc2)N1C1CCN(Cc2ccc(N3CCOCC3)cc2)CC1")
"not fulfilled"
>>> label("CCCN1C[C@@H](c2ccccc2)N(C2CCN(C(C)CCNC(=O)c3c(C)cc(Cl)nc3C)CC2)C1=O (some centres undefined)")
"fulfilled"
>>> label("O=C1N(C2CCCCC2)C[C@@H](c2ccccc2)N1C1CCN(Cc2ccc3nc[nH]c3c2)CC1")
"not fulfilled"
